From: paper PMC9023544

Test system: MCF-7/PAX (paclitaxel-resistant sub-line)
Assay: Cytotoxic activity, 2D, resazurin, 72 h
Type: cell-based, human
Conditions: IC50 MCF-7 / IC50 MCF-7/PAX
parameter_measured: CS (collateral sensitivity index)
Give a plain numeric answer without units written out.

Check out these entries, answers already filled in.
INSERT INTO measurements (chemical_smiles, tested_target, reported) VALUES
  ('CC(=O)C[Se]C(=O)c1ccccc1C(F)(F)F', 'MCF-7/PAX (paclitaxel-resistant sub-line)', 0.6),
  ('N#CC[Se]C(=O)c1cccc(F)c1', 'MCF-7/PAX (paclitaxel-resistant sub-line)', 1.0),
  ('N#CC[Se]C(=O)c1cc(C(F)(F)F)cc(C(F)(F)F)c1', 'MCF-7/PAX (paclitaxel-resistant sub-line)', 0.8),
  ('CC(=O)C[Se]C(=O)c1ccc(Br)cc1', 'MCF-7/PAX (paclitaxel-resistant sub-line)', 1.0),
  ('CC(=O)C[Se]C(=O)c1ccc(C(C)(C)C)cc1', 'MCF-7/PAX (paclitaxel-resistant sub-line)', 0.8),
  ('N#CC[Se]C(=O)c1ccc(Br)cc1', 'MCF-7/PAX (paclitaxel-resistant sub-line)', 0.9),
  ('CC(=O)C[Se]C(=O)c1cc(F)c(F)cc1F', 'MCF-7/PAX (paclitaxel-resistant sub-line)', 1.3),
  ('N#CC[Se]C(=O)c1ccc(F)c(Cl)c1', 'MCF-7/PAX (paclitaxel-resistant sub-line)', 0.9),
  ('CC(=O)C[Se]C(=O)c1cccc(C(F)(F)F)c1', 'MCF-7/PAX (paclitaxel-resistant sub-line)', 0.6),
  ('N#CC[Se]C(=O)c1ccccc1C(F)(F)F', 'MCF-7/PAX (paclitaxel-resistant sub-line)', 0.9);

// lookup CS (collateral sensitivity index) for `CC(=O)C[Se]C(=O)c1cccs1`
0.7

// lookup CS (collateral sensitivity index) for `CC(=O)C[Se]C(=O)c1ccc(F)c(Cl)c1`
0.9

// lookup CS (collateral sensitivity index) for `CC(=O)C[Se]C(=O)c1ccccc1F`
1.0

// lookup CS (collateral sensitivity index) for `N#CC[Se]C(=O)c1cccc(C(F)(F)F)c1`
0.9

// lookup CS (collateral sensitivity index) for `N#CC[Se]C(=O)c1cccs1`
1.2

###

Test system: HOC (human parental ovarian adenocarcinoma, A2780)
Assay: Cytotoxic activity, 2D, resazurin, 72 h
Format: cell-based
Conditions: IC50 HEK293 / IC50 HOC
parameter_measured: SI HEK293/HOC
Give a plain numeric answer without units written out.

Check out these entries, answers already filled in.
INSERT INTO measurements (chemical_smiles, parameter_measured, reported) VALUES
  ('N#CC[Se]C(=O)c1ccc(Br)cc1', 'SI HEK293/HOC', 1.2),
  ('CC(=O)C[Se]C(=O)c1ccc(F)c(Cl)c1', 'SI HEK293/HOC', 2.7),
  ('N#CC[Se]C(=O)c1cccc(F)c1', 'SI HEK293/HOC', 1.1),
  ('CC(=O)C[Se]C(=O)c1cc(F)c(F)cc1F', 'SI HEK293/HOC', 0.9),
  ('N#CC[Se]C(=O)c1ccc(F)c(Cl)c1', 'SI HEK293/HOC', 2.1),
  ('N#CC[Se]C(=O)c1ccccc1C(F)(F)F', 'SI HEK293/HOC', 2.2),
  ('N#CC[Se]C(=O)c1cccs1', 'SI HEK293/HOC', 2.2),
  ('CC(=O)C[Se]C(=O)c1cccs1', 'SI HEK293/HOC', 1.2);

API: the following record is the query input.
// lookup SI HEK293/HOC for `CC(=O)C[Se]C(=O)c1ccc(C(C)(C)C)cc1`
1.7

###

As shown below, each of these compounds has a reported pIC50 value.
Test system: HOC/ADR (sub-line resistant to Adriamycin, A2780/ADR)
Assay: Cytotoxic activity, 2D, resazurin, 72 h
Assay type: cell-based, human
Conditions: Homo sapiens, A2780 ADR; 2D, 72 h, mean ± SEM, n=3; read-out: HOC/ADR IC50
Where a name gives a salt, the structure may show the parent alone.
pIC50 is defined as minus the log10 of a concentration measured in mol/L.

Check out these entries, answers already filled in.
INSERT INTO measurements (compound, parameter_measured, reported) VALUES
  ('CC(=O)C[Se]C(=O)c1cccs1', 'pIC50', 5.64),
  ('CC(=O)C[Se]C(=O)c1ccccc1F', 'pIC50', 5.62),
  ('N#CC[Se]C(=O)c1cccs1', 'pIC50', 5.38),
  ('N#CC[Se]C(=O)c1ccccc1C(F)(F)F', 'pIC50', 5.43);

API: the following record is the query input.
// lookup pIC50 for COc1cccc2c1C(=O)c1c(O)c3c(c(O)c1C2=O)C[C@@](O)(C(=O)CO)C[C@@H]3O[C@H]1C[C@H](N)[C@H](O)[C@H](C)O1 [ADR, doxorubicin hydrochloride, reference compound]
5.60

###

Tested on: HOC/ADR (sub-line resistant to Adriamycin, A2780/ADR)
Assay: Cytotoxic activity, 2D, resazurin, 72 h
Assay type: cell-based, human
Conditions: IC50 HOC / IC50 HOC/ADR
As shown below, each of these molecules has a reported CS (collateral sensitivity index) value.
Give a plain numeric answer without units written out.

// lookup CS (collateral sensitivity index) for `CC(=O)C[Se]C(=O)c1ccc(Br)cc1`
0.7

// lookup CS (collateral sensitivity index) for `CC(=O)C[Se]C(=O)c1ccc(F)c(Cl)c1`
0.3

###

Tested on: HOC (human parental ovarian adenocarcinoma, A2780)
Assay: Cytotoxic activity, 2D, resazurin, 72 h
Format: cell-based
Conditions: Homo sapiens, A2780, 72 h, 2D, 72 h, mean ± SEM, n=3; read-out: HOC IC50
Protocol: […] For the experiment, the cells at passage number 5–20 were seeded at a 1 × 10^5 cells/mL concentration into 96-well plates to 100 µL final volume. […] After 1 h of incubation, the fluorescence signal was recorded (ex./em. 560/590 nm). The selectivity index (SI) was determined as the ratio of IC50 value for the non-cancerous cells to IC50 for the cancer cell line. […]
As shown below, each of these compounds has a reported IC50 value.

Check out these entries, answers already filled in.
INSERT INTO measurements (compound, tested_target, parameter_measured, reported) VALUES
  ('CC(=O)C[Se]C(=O)c1ccc(F)c(Cl)c1 [K6]', 'HOC (human parental ovarian adenocarcinoma, A2780)', 'IC50', '< 1000 nM'),
  ('CC(=O)C[Se]C(=O)c1cccs1 [K1]', 'HOC (human parental ovarian adenocarcinoma, A2780)', 'IC50', '< 1000 nM');

API: the following record is the query input.
// lookup IC50 for CC(=O)C[Se]C(=O)c1ccccc1F [K2]
< 1000 nM

###

As shown below, each of these compounds has a reported pIC50 value.
Tested on: HOC/ADR (sub-line resistant to Adriamycin, A2780/ADR)
Assay: Cytotoxic activity, 2D, resazurin, 72 h
Assay type: cell-based, human
Settings: Homo sapiens, A2780 ADR; 2D, 72 h, mean ± SEM, n=3; read-out: HOC/ADR IC50
pIC50 is defined as minus the log10 of a concentration measured in mol/L.

INSERT INTO assay_data (chemical_smiles, reported) VALUES
  ('N#CC[Se]C(=O)c1ccc(F)c(Cl)c1', 5.44),
  ('CC(=O)C[Se]C(=O)c1ccc(F)c(Cl)c1', 5.59),
  ('N#CC[Se]C(=O)c1cccc(F)c1', 5.33);

// lookup pIC50 for `CC(=O)C[Se]C(=O)c1cccc(C(F)(F)F)c1`
5.66

// lookup pIC50 for `CC(=O)C[Se]C(=O)c1cc(F)c(F)cc1F`
5.57

// lookup pIC50 for `N#CC[Se]C(=O)c1ccc(Br)cc1`
5.28

// lookup pIC50 for `N#CC[Se]C(=O)c1cccc(C(F)(F)F)c1`
5.35

// lookup pIC50 for `N#CC[Se]C(=O)c1cc(C(F)(F)F)cc(C(F)(F)F)c1`
5.24

###

System: HOC/ADR (sub-line resistant to Adriamycin, A2780/ADR)
Test: Cytotoxic activity, 2D, resazurin, 72 h
Type: cell-based, human
Settings: IC50 HOC / IC50 HOC/ADR
As shown below, each of these compounds has a reported CS (collateral sensitivity index) value.
Give a plain numeric answer without units written out.

INSERT INTO results (chemical_smiles, parameter_measured, reported) VALUES
  ('N#CC[Se]C(=O)c1cccs1', 'CS (collateral sensitivity index)', 0.7);

// lookup CS (collateral sensitivity index) for `N#CC[Se]C(=O)c1cccc(C(F)(F)F)c1`
0.5

// lookup CS (collateral sensitivity index) for `CC(=O)C[Se]C(=O)c1cccs1`
0.4

###

System: HOC/ADR (sub-line resistant to Adriamycin, A2780/ADR)
Experiment: Cytotoxic activity, 2D, resazurin, 72 h
Assay type: cell-based, human
Conditions: IC50 HOC / IC50 HOC/ADR
parameter_measured: CS (collateral sensitivity index)

Check out these entries, answers already filled in.
INSERT INTO measurements (molecule, reported) VALUES
  ('CC(=O)C[Se]C(=O)c1cc(F)c(F)cc1F [K8]', '0.8 ± 0.1'),
  ('N#CC[Se]C(=O)c1ccccc1C(F)(F)F [N4]', '0.6 ± 0.1');

API: the following record is the query input.
// lookup CS (collateral sensitivity index) for N#CC[Se]C(=O)c1ccc(F)c(Cl)c1 [N6]
0.7 ± 0.1
